Hello, the source for this data is patent US5061794A, in case you need it.

assay: concentration in blood of mice after subcutaneous administration; assay type: in vivo, mice (ddY type, male); details: mouse, sc, 20 mg/kg, 240 min
quantity kind: concentration at 4 h (ng/mL)
Numbers only, in ng/mL.

Input: Tell me the measured concentration at 4 h of CC(C)(ON=C(C(=O)NC1C(=O)N2C(C(=O)O)=C(CSc3nc(C(=O)O)c(-c4ccc(O)c(O)c4)s3)CSC12)c1csc(N)n1)C(=O)O (stereo not shown) , please.
Output: 220

* * *

tested on: Ps. aeruginosa IF03445; experiment: in vitro antibacterial activity, agar plate dilution method (MIC); type: cell-based, Pseudomonas aeruginosa; details: Pseudomonas aeruginosa, 16 h; Ps. aeruginosa IF03445; 10^6 CFU/ml; read-out: Minimum Inhibitory Concentration (MIC)
Counter-ions that a name gives are not always drawn.
quantity kind: MIC (µg/mL)
Answers are plain numbers, in µg/mL.

Answered cases to consult:
[
  {
    "molecule": "CON=C(C(=O)NC1C(=O)N2C(C(=O)O)=C(CSc3nc(-c4ccc(O)c(O)c4)c(CC(=O)O)s3)CSC12)c1csc(N)n1 (stereo not drawn) [compound 58]",
    "unit spec": "µg/mL",
    "MIC": 25
  },
  {
    "molecule": "CO/N=C(\\C(=O)N[C@@H]1C(=O)N2C(C(=O)O)=C(CSc3nnc(-c4ccccc4)s3)CS[C@H]12)c1csc(N)n1 [compound 5, trifluoroacetate, reference compound]",
    "unit spec": "µg/mL",
    "MIC": 50
  },
  {
    "molecule": "CC(C)(O/N=C(\\C(=O)N[C@@H]1C(=O)N2C(C(=O)O)=C(CSc3nc(-c4ccccc4)c(CC(=O)O)s3)CS[C@H]12)c1csc(N)n1)C(=O)O [compound 16, reference compound]",
    "unit spec": "µg/mL",
    "MIC": 50
  },
  {
    "molecule": "CO/N=C(\\C(=O)N[C@@H]1C(=O)N2C(C(=O)O)=C(COC(C)=O)CS[C@H]12)c1csc(N)n1 [cefotaxime, reference compound]",
    "unit spec": "µg/mL",
    "MIC": 2.5
  },
  {
    "molecule": "CC(=O)Oc1ccc(-c2nc(SCC3=C(C(=O)O)N4C(=O)[C@@H](NC(=O)/C(=N\\OC(C)(C)C(=O)O)c5csc(N)n5)[C@H]4SC3)sc2CC(=O)O)cc1 [compound 20, reference compound]",
    "unit spec": "µg/mL",
    "MIC": 25
  }
]

State recorded MIC for all listed molecules.
1. CO/N=C(\C(=O)N[C@@H]1C(=O)N2C(C(=O)O)=C(CSc3nc(-c4ccccc4)c(CC(=O)O)s3)CS[C@H]12)c1csc(N)n1 [compound 15, reference compound]
2. CC(C)(O/N=C(\C(=O)N[C@@H]1C(=O)N2C(C(=O)O)=C(CSc3nnc(-c4ccccc4)o3)CS[C@H]12)c1csc(N)n1)C(=O)O [compound 3, reference compound]
3. CO/N=C(\C(=O)N[C@@H]1C(=O)N2C(C(=O)O)=C(CSc3nc(-c4ccc(O)cc4)c(CC(=O)O)s3)CS[C@H]12)c1csc(N)n1 [compound 17, reference compound]
4. CO/N=C(\C(=O)N[C@@H]1C(=O)N2C(C(=O)O)=C(CSc3ncc(-c4ccc(O)cc4)o3)CS[C@H]12)c1csc(N)n1 [compound 23, reference compound]
5. CO/N=C(\C(=O)N[C@@H]1C(=O)N2C(C(=O)O)=C(CSc3nc(-c4ccccc4)cs3)CS[C@H]12)c1csc(N)n1 [compound 9, reference compound]

Output:
1: 100; 2: 50; 3: 50; 4: 50; 5: 25

State recorded MIC for all listed molecules.
1. C=CCO/N=C(\C(=O)N[C@@H]1C(=O)N2C(C(=O)O)=C(CSc3nnc(-c4ccc(O)c(O)c4)o3)CS[C@H]12)c1csc(N)n1 [Ex. 8]
2. CO/N=C(\C(=O)N[C@@H]1C(=O)N2C(C(=O)O)=C(CSc3nnc(-c4ccc(O)cc4)o3)CS[C@H]12)c1csc(N)n1 [compound 2, reference compound]
3. CC(C)(O/N=C(\C(=O)N[C@@H]1C(=O)N2C(C(=O)O)=C(CSc3nnc(-c4ccc(O)cc4)o3)CS[C@H]12)c1csc(N)n1)C(=O)O [compound 4, reference compound]

Output:
0.2
100
25

State recorded MIC for all listed molecules.
1. CC(C)(O/N=C(\C(=O)N[C@@H]1C(=O)N2C(C(=O)O)=C(CSc3ncc(-c4ccc(O)cc4)o3)CS[C@H]12)c1csc(N)n1)C(=O)O [compound 24, reference compound]
2. CC(C)(O/N=C(\C(=O)N[C@@H]1C(=O)N2C(C(=O)O)=C(CSc3nnc(-c4ccccc4)s3)CS[C@H]12)c1csc(N)n1)C(=O)O [compound 6, reference compound]
3. CO/N=C(\C(=O)N[C@@H]1C(=O)N2C(C(=O)O)=C(CSc3nnc(-c4ccc(O)cc4)s3)CS[C@H]12)c1csc(N)n1 [compound 7, reference compound]
4. CO/N=C(\C(=O)N[C@@H]1C(=O)N2C(C(=O)O)=C(CSc3nc(-c4ccc(OC(C)=O)cc4)c(CC(=O)O)s3)CS[C@H]12)c1csc(N)n1 [compound 18, reference compound]
5. CON=C(C(=O)NC1C(=O)N2C(C(=O)O)=C(CSc3nc(-c4ccc(OC(C)=O)c(OC(C)=O)c4)cs3)CSC12)c1csc(N)n1 (stereo not drawn) [compound 40]

Output:
[25, 50, 25, 100, 1.56]

State recorded MIC for all listed molecules.
1. CC(C)(O/N=C(\C(=O)N[C@@H]1C(=O)N2C(C(=O)O)=C(CSc3nnc(-c4ccc(O)cc4)s3)CS[C@H]12)c1csc(N)n1)C(=O)O [compound 8, reference compound]
2. CO/N=C(\C(=O)N[C@@H]1C(=O)N2C(C(=O)O)=C(CSc3ncc(-c4ccccc4)o3)CS[C@H]12)c1csc(N)n1 [compound 21, reference compound]

Output:
25
50

* * *

test system: S. marcescens No. 16-2; test: in vitro antibacterial activity, agar plate dilution method (MIC); assay type: cell-based; conditions: Serratia marcescens, NO.162, 16 h, read-out: Minimum Inhibitory Concentration (MIC), *S. marcescens No. 16-2, lactamase-producing strain; 10^6 CFU/ml
Counter-ions that a name gives are not always drawn.
Give MIC for every item shown.
The reply should read as a number followed by its unit.

Answered cases to consult:
[
  {
    "molecule": "CC(C)(O/N=C(\\C(=O)N[C@@H]1C(=O)N2C(C(=O)O)=C(CSc3nnc(-c4ccc(O)cc4)s3)CS[C@H]12)c1csc(N)n1)C(=O)O [compound 8, reference compound]",
    "reported value": "6.25 mg/L"
  },
  {
    "molecule": "CO/N=C(\\C(=O)N[C@@H]1C(=O)N2C(C(=O)O)=C(CSc3nnc(-c4ccccc4)o3)CS[C@H]12)c1csc(N)n1 [compound 1, trifluoroacetate, reference compound]",
    "reported value": "6.25 mg/L"
  },
  {
    "molecule": "CC(C)O/N=C(\\C(=O)N[C@@H]1C(=O)N2C(C(=O)O)=C(CSc3nnc(-c4ccc(O)c(O)c4)o3)CS[C@H]12)c1csc(N)n1",
    "reported value": "1.56 mg/L"
  },
  {
    "molecule": "Nc1nc(/C(=N/OCc2ccccc2CC(=O)O)C(=O)N[C@@H]2C(=O)N3C(C(=O)O)=C(CSc4nnc(-c5ccc(O)c(O)c5)o4)CS[C@H]23)cs1",
    "reported value": "1.56 mg/L"
  }
]

Next item in the queue.
Input: Tell me the measured MIC of Nc1nc(C(=NOC(C(=O)O)c2ccccc2)C(=O)NC2C(=O)N3C(C(=O)O)=C(CSc4nc(C(=O)O)c(-c5ccc(O)c(O)c5)s4)CSC23)cs1 (single isomer, unassigned) , please.
Output: 1.56 mg/L

* * *

system: E. cloacae 963; assay: in vitro antibacterial activity, agar plate dilution method (MIC); format: cell-based; settings: Enterobacter cloacae, 16 h; E. cloacae 963; 10^6 CFU/ml; read-out: Minimum Inhibitory Concentration (MIC)
quantity kind: MIC

[
  {
    "molecule": "CCON=C(C(=O)NC1C(=O)N2C(C(=O)O)=C(CSc3nc(C(=O)O)c(-c4ccc(O)c(O)c4)s3)CSC12)c1csc(N)n1 (stereo not drawn)",
    "reported value": "0.1 µg/mL"
  },
  {
    "molecule": "CO/N=C(\\C(=O)N[C@@H]1C(=O)N2C(C(=O)O)=C(COC(C)=O)CS[C@H]12)c1csc(N)n1 [cefotaxime, reference compound]",
    "reported value": "0.05 µg/mL"
  }
]

Next item in the queue.
Input: Given the entry Nc1nc(C(=NOCC(=O)O)C(=O)NC2C(=O)N3C(C(=O)O)=C(CSc4nc(-c5ccc(O)c(O)c5)cs4)CSC23)cs1 (stereo not drawn) , what MIC was observed with E. cloacae 963?
Output: 0.1 µg/mL
